assay: TR-FRET detection interference compounds, primary screen, artefact control for PPARgamma SRC-1 recruitment agonists, biochemical, TR-FRET emission ratio (AID 1051); details: TR-FRET detection artefact counter-screen, at 8 µM, stronger effect = higher value
Out of some 99,000 compounds screened, about 340 (0.34%) were called active. The sample holds actives, similar compounds and a random draw of the others, so the mix is not that of the screen.
outcome measure: TR-FRET ratio
// response body must contain only the number

1. CNc1nccc(-c2ccc(Cl)cc2)c1C#N; 1880

response.value for CC(=O)Nc1ccc(/C=N/NC(=O)c2cccs2)cc1 (field: TR-FRET ratio) = 1750

For this compound ( CCOC(=O)c1c(C)[nH]c(=S)c(C#N)c1-c1ccccc1 ), measured TR-FRET ratio is 1630

Recorded TR-FRET ratio (compound CCc1[nH]nc(C(=O)N2CCCC(CNS(=O)(=O)c3cccs3)C2)c1C (stereo not drawn) ): 1580

TR-FRET ratio measured on S=C(Cc1ccc(Cl)cc1)N1CCOCC1 = 2050

Record summary for CC(OC(=O)c1ccc2ccccc2n1)C(=O)c1ccccc1 (stereo not drawn) : reported TR-FRET ratio = 1760

Quick note, TR-FRET ratio for O=C(Nc1ccc([N+](=O)[O-])cc1)C1(c2ccccc2)CCOCC1 landed at 1740

The compound COc1ccc(NC(=S)N2CCCC(CO)C2)c(OC)c1 (stereo not drawn) showed TR-FRET ratio equal to 1690

// TR-FRET ratio value for CCN(CC)Cc1nc2sc(C)c(C)c2c(=O)[nH]1 : 1970

Value of measured TR-FRET ratio for the entry CCC1CO/C(=C(\C(=C(Cl)Cl)N2CCOCC2)[N+](=O)[O-])N1 (stereo not drawn) : 1830

COC(=O)c1ccc(NC(=S)Nc2cccc(C)n2)cc1 yielded TR-FRET ratio of 1830

// recorded TR-FRET ratio for CC1(C)C(C=C(Cl)Cl)C1C(=O)N(Cc1ccc(Cl)cc1)C1CCS(=O)(=O)C1 (stereo not drawn) : 1570

Sample CCSC1=NCCN1C(=O)c1ccc(S(=O)(=O)N(CC)CC)cc1 ; TR-FRET ratio observed: 1800

====

test: TR-FRET detection interference compounds, primary screen, artefact control for PPARgamma SRC-1 recruitment agonists, biochemical, TR-FRET emission ratio (AID 1051); conditions: TR-FRET detection artefact counter-screen, at 8 µM, stronger effect = higher value
In all, about 99,000 compounds went through this assay and about 340 (0.34%) were called active. Shown is part of a subset that was picked to be rich in actives.
outcome measure: TR-FRET ratio
Form rule: numeric answer, no unit written next to it.

Solved entries:
1) O=C(CCc1ccc(S(=O)(=O)N2CCOCC2)cc1)NN=C1CCCCCCC1; 1980
2) COc1cccc(-n2nc(C(=O)N3CCN(Cc4ccccc4)CC3)c3ccccc3c2=O)c1; 1300
3) O=C(NNS(=O)(=O)c1ccc(F)cc1)c1cnccn1; 1930
4) Cc1nc2ccccc2n1CC(=O)N/N=C/c1cccnc1; 1750
5) Cc1ccccc1CN(c1ccc(C(=O)NCC2CCCO2)cc1)S(C)(=O)=O (stereo unspecified); 1760

Could you now look at the following compound, please?
The compound listed as CCc1cccc(C)c1NC(=O)COC(=O)Cc1ccsc1 has a reported TR-FRET ratio of 1600
